assay_system: F508del in NIH 3T3 cells (Homo sapiens, UniProt P13569, DEL508-508)
Sequence (P13569 with tags, fused parts or gaps DEL508-508): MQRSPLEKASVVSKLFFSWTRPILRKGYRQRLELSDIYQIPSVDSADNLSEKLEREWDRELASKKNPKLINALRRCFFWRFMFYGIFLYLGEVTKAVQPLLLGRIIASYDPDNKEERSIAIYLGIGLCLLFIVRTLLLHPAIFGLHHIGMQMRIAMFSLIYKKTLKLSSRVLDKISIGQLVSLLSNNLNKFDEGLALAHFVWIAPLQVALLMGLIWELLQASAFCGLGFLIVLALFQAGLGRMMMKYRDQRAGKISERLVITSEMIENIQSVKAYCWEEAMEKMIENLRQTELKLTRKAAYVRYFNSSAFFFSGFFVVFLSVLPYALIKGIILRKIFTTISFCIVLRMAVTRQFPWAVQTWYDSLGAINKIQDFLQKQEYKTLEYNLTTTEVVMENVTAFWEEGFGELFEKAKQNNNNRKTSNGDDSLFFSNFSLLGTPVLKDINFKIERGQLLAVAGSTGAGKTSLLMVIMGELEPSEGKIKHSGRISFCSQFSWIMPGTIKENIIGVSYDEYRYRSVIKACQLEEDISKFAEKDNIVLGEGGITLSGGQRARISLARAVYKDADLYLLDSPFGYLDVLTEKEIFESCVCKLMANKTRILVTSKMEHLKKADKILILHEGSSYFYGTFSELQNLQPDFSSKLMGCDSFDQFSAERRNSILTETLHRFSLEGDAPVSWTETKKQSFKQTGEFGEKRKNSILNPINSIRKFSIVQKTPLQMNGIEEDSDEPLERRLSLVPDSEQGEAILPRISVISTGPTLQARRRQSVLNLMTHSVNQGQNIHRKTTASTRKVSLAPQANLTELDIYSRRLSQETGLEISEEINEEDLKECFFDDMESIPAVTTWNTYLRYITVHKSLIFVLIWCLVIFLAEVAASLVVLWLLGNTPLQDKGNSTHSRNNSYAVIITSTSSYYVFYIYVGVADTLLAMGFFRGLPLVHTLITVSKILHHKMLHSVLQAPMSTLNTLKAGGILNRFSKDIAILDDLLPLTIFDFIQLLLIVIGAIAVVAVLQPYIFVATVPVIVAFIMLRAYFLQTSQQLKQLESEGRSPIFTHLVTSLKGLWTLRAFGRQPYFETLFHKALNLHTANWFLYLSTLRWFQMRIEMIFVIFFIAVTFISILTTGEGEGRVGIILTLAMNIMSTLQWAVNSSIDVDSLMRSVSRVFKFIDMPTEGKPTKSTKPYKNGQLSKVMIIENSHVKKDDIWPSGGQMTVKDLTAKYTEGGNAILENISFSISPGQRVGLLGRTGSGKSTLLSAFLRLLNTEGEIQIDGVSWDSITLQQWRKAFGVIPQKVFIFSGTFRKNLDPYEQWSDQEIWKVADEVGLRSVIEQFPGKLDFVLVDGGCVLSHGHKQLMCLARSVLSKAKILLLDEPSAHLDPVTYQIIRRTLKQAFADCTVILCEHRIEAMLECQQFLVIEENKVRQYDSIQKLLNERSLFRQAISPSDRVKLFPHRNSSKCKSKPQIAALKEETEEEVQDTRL
assay_remarks: 3T3 assay: membrane potential optical assay for F508del correction
condition_description: F508del NIH 3T3 cells, incubated with compound 18-24 hours at 37° C., forskolin activation
pEC50: −log10 of the molar value.
observable: pEC50

> print(dat)
                  compound.structure.string  observable  measured.value
1  Cc1ccc(-n2nc(NS(=O)(=O)c3ccccc3)c3ccc(C(C)(C)C)nc32)c(C)c1       pEC50          > 6.00
2  Cc1cccc(C)c1Oc1nc2ccccc2nc1NS(=O)(=O)c1ccccc1       pEC50    4.52 to 5.52
3  Cc1cc(C)cc(-n2nc(NS(=O)(=O)c3ccccc3)c3cc(C(C)C)cnc32)c1       pEC50          > 6.00

Consider the molecule `Cc1cc(C)cc(-n2nc(NS(=O)(=O)c3ccccc3)c3ccc(C(C)(C)C)nc32)c1` and give its recorded pEC50.
> 6.00

Consider the molecule `Cc1cc(C)c(-n2nc(NS(=O)(=O)c3cccc4c3OCCO4)c3ccc(C(C)(C)C)nc32)c(C)c1` and give its recorded pEC50.
> 6.00

Consider the molecule `Cc1cc(C)c(-n2nc(NS(=O)(=O)c3cccc(N)c3)c3ccc(C(C)(C)C)nc32)c(C)c1` and give its recorded pEC50.
> 6.00

Consider the molecule `O=S(=O)(Nc1nc2c(c(Oc3ccccc3)n1)CCC2)c1ccccc1` and give its recorded pEC50.
4.52 to 5.52

Consider the molecule `COc1ccc(N)cc1S(=O)(=O)Nc1nn(-c2c(C)cc(C)cc2C)c2nc(C(C)(C)C)ccc12` and give its recorded pEC50.
4.52 to 5.52

====

assay_system: CFTR-mediated chloride transport in human intestinal epithelial enteroid cells (Homo sapiens)
Sequence (P13569 whole entry): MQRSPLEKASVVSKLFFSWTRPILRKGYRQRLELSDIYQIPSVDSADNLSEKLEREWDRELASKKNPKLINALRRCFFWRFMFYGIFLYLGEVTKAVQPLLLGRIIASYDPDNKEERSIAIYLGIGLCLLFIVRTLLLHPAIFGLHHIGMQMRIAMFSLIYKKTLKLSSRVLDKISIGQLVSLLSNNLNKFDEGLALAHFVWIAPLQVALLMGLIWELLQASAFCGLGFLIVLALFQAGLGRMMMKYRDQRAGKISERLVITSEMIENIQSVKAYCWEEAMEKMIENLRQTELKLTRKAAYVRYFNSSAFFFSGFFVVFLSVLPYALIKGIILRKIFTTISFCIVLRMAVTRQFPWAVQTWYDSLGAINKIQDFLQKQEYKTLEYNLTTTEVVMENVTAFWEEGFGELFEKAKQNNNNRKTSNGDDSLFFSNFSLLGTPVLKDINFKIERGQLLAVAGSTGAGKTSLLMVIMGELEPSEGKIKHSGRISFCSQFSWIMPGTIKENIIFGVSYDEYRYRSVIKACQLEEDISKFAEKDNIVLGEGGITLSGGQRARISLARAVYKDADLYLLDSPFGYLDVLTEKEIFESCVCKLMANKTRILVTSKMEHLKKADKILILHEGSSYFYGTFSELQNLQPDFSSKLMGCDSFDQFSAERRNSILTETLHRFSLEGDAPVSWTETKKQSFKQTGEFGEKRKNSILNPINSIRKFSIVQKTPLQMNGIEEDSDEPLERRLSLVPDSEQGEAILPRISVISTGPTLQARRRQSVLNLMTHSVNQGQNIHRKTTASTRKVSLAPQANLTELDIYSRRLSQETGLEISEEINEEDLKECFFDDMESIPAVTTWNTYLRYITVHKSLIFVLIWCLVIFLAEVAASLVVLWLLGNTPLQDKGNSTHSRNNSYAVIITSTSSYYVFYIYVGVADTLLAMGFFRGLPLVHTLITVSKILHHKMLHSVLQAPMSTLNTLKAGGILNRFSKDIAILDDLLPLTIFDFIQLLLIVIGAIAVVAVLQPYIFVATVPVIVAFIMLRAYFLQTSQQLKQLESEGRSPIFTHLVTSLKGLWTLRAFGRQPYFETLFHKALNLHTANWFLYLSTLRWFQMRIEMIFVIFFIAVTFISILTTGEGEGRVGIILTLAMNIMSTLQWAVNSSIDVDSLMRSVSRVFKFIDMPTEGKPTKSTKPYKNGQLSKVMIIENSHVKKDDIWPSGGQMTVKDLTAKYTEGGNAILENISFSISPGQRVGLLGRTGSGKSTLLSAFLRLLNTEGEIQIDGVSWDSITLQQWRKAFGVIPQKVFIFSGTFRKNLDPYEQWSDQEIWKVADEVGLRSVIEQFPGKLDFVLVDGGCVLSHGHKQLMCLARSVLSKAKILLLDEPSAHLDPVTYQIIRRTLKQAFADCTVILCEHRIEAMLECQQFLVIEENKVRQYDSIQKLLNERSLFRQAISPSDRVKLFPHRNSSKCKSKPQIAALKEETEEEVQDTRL
assay_remarks: Enteroid assay: membrane potential dye assay (Enteroid Assay A or B)
condition_description: enteroid cells, 18-24 hours incubation, acute 10 μM forskolin and 300 nM ivacaftor; read-out: Ent. EC50
Method: Base medium (ADF+++) consisted of Advanced DMEM/Ham's F12, 2 mM Glutamax, 10 mM HEPES, […] penicillin/streptomycin. […] Enteroid cells were incubated with test compound in IEMM for 18-24 hours at 37° C., 95% humidity and 5% CO2. […] Chloride transport was initiated by addition of Chloride Free Dye Stimulation Solution and the fluorescence signal was read for 15 min. […]
observable: EC50

Consider the molecule Cc1ccccc1-c1nc(NS(=O)(=O)c2cnn(C)c2)cc2oc3ccccc3c12 [Compound 79] and give its recorded EC50.
3 to 30 µM

====

assay_system: F508del in NIH 3T3 cells (Homo sapiens, UniProt P13569, DEL508-508)
assay_remarks: 3T3 assay: membrane potential optical assay for F508del correction
condition_description: F508del NIH 3T3 cells, incubated with compound 18-24 hours at 37° C., forskolin activation
observable: EC50

Use these answered entries as a reference point.
> print(dat)
                                   compound  measured.value
1  Cc1cc(C)cc(-c2nc(NS(=O)(=O)c3ccccc3)cc3ccccc23)c1          < 1 µM
2  O=S(=O)(Nc1nc2c(s1)CCc1ccccc1-2)c1ccccc1       1 to 3 µM
3  Cc1cc(C)cc(-c2nc(NS(=O)(=O)c3ccccc3)nc3ccccc23)c1       1 to 3 µM

Consider the compound `Cc1ccc(Oc2nc3ccccc3nc2NS(=O)(=O)c2ccccc2)c(C)c1` and give its recorded EC50.
1 to 3 µM

Consider the compound `Cc1ccc(-n2nc(NS(=O)(=O)c3ccccc3)c3ccc(C(C)(C)C)nc32)cc1` and give its recorded EC50.
< 1 µM

Consider the compound `Cc1cc(C)c(-n2nc(NS(=O)(=O)c3ccccc3)c3ccc(C(C)(C)C)nc32)c(C)c1` and give its recorded EC50.
< 1 µM

Consider the compound `O=S(=O)(Nc1nc2ccccc2nc1N1CCCCC1)c1ccccc1` and give its recorded EC50.
3 to 30 µM

Consider the compound `O=S(=O)(Nc1nc2c(s1)-c1ccccc1CC2)c1ccccc1` and give its recorded EC50.
3 to 30 µM

Consider the compound `COc1cccc(S(=O)(=O)Nc2nn(-c3c(C)cc(C)cc3C)c3nc(C(C)(C)C)ccc23)c1` and give its recorded EC50.
< 1 µM

Consider the compound `O=S(=O)(Nc1nc(Oc2ccccc2)c2ccccc2n1)c1ccccc1` and give its recorded EC50.
3 to 30 µM

Consider the compound `Cc1cc(C)c(-n2nc(NS(=O)(=O)c3cccc(N)n3)c3ccc(C(C)(C)C)nc32)c(C)c1` and give its recorded EC50.
1 to 3 µM

Consider the compound `C=C(C)c1cnc2c(c1)c(NS(=O)(=O)c1ccccc1)nn2-c1cc(C)cc(C)c1` and give its recorded EC50.
< 1 µM
